IC50 by entry:
# TARGET: Avi-KRAS G12D (2-169) GTP/RAF1 RBD-3xFLAG (51-131) (Homo sapiens, UniProt P01116, G12D)
# Construct: Avi-KRAS G12D (2-169)
# Sequence (P01116 2-169 isoform P01116-2 G12D): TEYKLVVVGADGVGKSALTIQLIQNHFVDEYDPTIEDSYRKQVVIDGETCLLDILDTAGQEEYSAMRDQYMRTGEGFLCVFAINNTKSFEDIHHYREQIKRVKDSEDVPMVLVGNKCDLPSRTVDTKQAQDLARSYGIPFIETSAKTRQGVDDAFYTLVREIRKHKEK
# METHOD DESCRIPTION: Raf1-KRAS G12D-GTP disruption HTRF assay (Biological Example 3)
# Type: binding
# CONDITION: KRAS G12D, GTP-loaded
READOUT TYPE: IC50

| COMPOUND | TARGET | OBS VALUE |
| --- | --- | --- |
| CN(Cc1cnco1)c1nc(OC[C@@]23CCCN2C[C@H](F)C3)nc2c(F)c(-c3ccc(F)c4sc(N)c(C#N)c34)c(C(F)(F)F)cc12 | Avi-KRAS G12D (2-169) GTP/RAF1 RBD-3xFLAG (51-131) (Homo sapiens, UniProt P01116, G12D) | 100 to 1000 nM |
| C=C(C)C(=O)N1CC[C@H](N(CC)c2nc(OC[C@@]34CCCN3C[C@H](F)C4)nc3c(F)c(-c4ccc(F)c5sc(N)c(C#N)c45)c(C(F)(F)F)cc23)C1 (atropisomer, axis not shown) | Avi-KRAS G12D (2-169) GTP/RAF1 RBD-3xFLAG (51-131) (Homo sapiens, UniProt P01116, G12D) | ≤ 100 nM |
| CCN(c1nc(OC[C@@]23CCCN2C[C@H](F)C3)nc2c(F)c(-c3ccc(F)c4sc(N)c(C#N)c34)c(C(F)(F)F)cc12)[C@H]1CCN(C(=O)O[C@@H]2CCOC2)C1 (atropisomer, axis not shown) | Avi-KRAS G12D (2-169) GTP/RAF1 RBD-3xFLAG (51-131) (Homo sapiens, UniProt P01116, G12D) | ≤ 100 nM |
| CN(C)C(=O)c1nn2c(c1Cl)CN(c1nc(OC[C@@]34CCCN3C[C@H](F)C4)nc3c(F)c(-c4ccc(F)c5sc(N)c(C#N)c45)c(C(F)(F)F)cc13)CC2 | Avi-KRAS G12D (2-169) GTP/RAF1 RBD-3xFLAG (51-131) (Homo sapiens, UniProt P01116, G12D) | 100 to 1000 nM |
| CCN(c1nc(OC[C@@]23CCCN2C[C@H](F)C3)nc2c(F)c(-c3ccc(F)c4sc(N)c(C#N)c34)c(C(F)(F)F)cc12)[C@H]1C[C@H](C)N(C(=O)C2C[C@@H]2F)C1 (some centres unmarked) | Avi-KRAS G12D (2-169) GTP/RAF1 RBD-3xFLAG (51-131) (Homo sapiens, UniProt P01116, G12D) | 100 to 1000 nM |
| CN(Cc1ncco1)c1nc(OC[C@@]23CCCN2C[C@H](F)C3)nc2c(F)c(-c3ccc(F)c4sc(N)c(C#N)c34)c(C(F)(F)F)cc12 (atropisomer, axis not shown) | Avi-KRAS G12D (2-169) GTP/RAF1 RBD-3xFLAG (51-131) (Homo sapiens, UniProt P01116, G12D) | 100 to 1000 nM |
| CN(Cc1cncnc1)c1nc(OC[C@@]23CCCN2C[C@H](F)C3)nc2c(F)c(-c3ccc(F)c4sc(N)c(C#N)c34)c(C(F)(F)F)cc12 (atropisomer, axis not shown) | Avi-KRAS G12D (2-169) GTP/RAF1 RBD-3xFLAG (51-131) (Homo sapiens, UniProt P01116, G12D) | 100 to 1000 nM |
| C[C@@H](c1cccnc1)N(C)c1nc(OC[C@@]23CCCN2C[C@H](F)C3)nc2c(F)c(-c3ccc(F)c4sc(N)c(C#N)c34)c(C(F)(F)F)cc12 | Avi-KRAS G12D (2-169) GTP/RAF1 RBD-3xFLAG (51-131) (Homo sapiens, UniProt P01116, G12D) | 1000 to 10000 nM |
| CCN(c1nc(OC[C@@]23CCCN2C[C@H](F)C3)nc2c(F)c(-c3ccc(F)c4sc(N)c(C#N)c34)c(C(F)(F)F)cc12)[C@H]1C[C@H]2COC(=O)N2C1 (atropisomer, axis not shown; (aS)) | Avi-KRAS G12D (2-169) GTP/RAF1 RBD-3xFLAG (51-131) (Homo sapiens, UniProt P01116, G12D) | ≤ 100 nM |
| CCN(c1nc(OC[C@@]23CCCN2C[C@H](F)C3)nc2c(F)c(-c3ccc(F)c4sc(N)c(C#N)c34)c(C(F)(F)F)cc12)[C@H]1CCN(C(=O)[C@H]2CCO2)C1 (atropisomer, axis not shown) | Avi-KRAS G12D (2-169) GTP/RAF1 RBD-3xFLAG (51-131) (Homo sapiens, UniProt P01116, G12D) | ≤ 100 nM |
| CCN(c1nc(OC[C@@]23CCCN2C[C@H](F)C3)nc2c(F)c(-c3ccc(F)c4sc(N)c(C#N)c34)c(C(F)(F)F)cc12)[C@H]1CCN(C(=O)c2cnc(C)s2)C1 (atropisomer, axis not shown) | Avi-KRAS G12D (2-169) GTP/RAF1 RBD-3xFLAG (51-131) (Homo sapiens, UniProt P01116, G12D) | ≤ 100 nM |
| CCN(c1nc(OC[C@@]23CCCN2C[C@H](F)C3)nc2c(F)c(-c3ccc(F)c4sc(N)c(C#N)c34)c(C(F)(F)F)cc12)[C@H]1CCN(c2ccccn2)C1 | Avi-KRAS G12D (2-169) GTP/RAF1 RBD-3xFLAG (51-131) (Homo sapiens, UniProt P01116, G12D) | 1000 to 10000 nM |
| CCN(c1nc(OC[C@@]23CCCN2C[C@H](F)C3)nc2c(F)c(-c3ccc(F)c4sc(N)c(C#N)c34)c(C(F)(F)F)cc12)[C@H]1CCN(C(=O)O[C@@H]2CO[C@H]3OCC[C@H]32)C1 (atropisomer, axis not shown) | Avi-KRAS G12D (2-169) GTP/RAF1 RBD-3xFLAG (51-131) (Homo sapiens, UniProt P01116, G12D) | ≤ 100 nM |
| CCN(c1nc(OC[C@@]23CCCN2C[C@H](F)C3)nc2c(F)c(-c3ccc(F)c4sc(N)c(C#N)c34)c(C(F)(F)F)cc12)[C@@H]1CCN(C(=O)[C@@H]2CCO2)[C@@H]1C (atropisomer, axis not shown) | Avi-KRAS G12D (2-169) GTP/RAF1 RBD-3xFLAG (51-131) (Homo sapiens, UniProt P01116, G12D) | 100 to 1000 nM |
